Where do these numbers come from? They come from paper PMC8398878.

Assay: Solubility by shake-flask method (SFM) with HPLC
Assay type: physicochemical
Conditions: Methanol; 25 °C; n = 3; read-out: Solubility
endpoint_name: solubility (µg/mL)
# number only, unit µg/mL dropped from output

Q. Please look up its solubility: CC[C@H](C)[C@H](NC(=O)[C@H](Cc1ccc(O)cc1)NC(=O)[C@@H](NC(=O)[C@H](CCCNC(=N)N)NC(=O)[C@@H](N)CC(=O)O)C(C)C)C(=O)N[C@@H](Cc1c[nH]cn1)C(=O)N1CCC[C@H]1C(=O)O [Ang (1—7), Asp-Arg-Val-Tyr-Ile-His-Pro]
A. 1000

====

Assay: Solubility by shake-flask method (SFM) with HPLC
Type: physicochemical
Conditions: NS (normal saline); pH 6.5; 25 °C; n = 3
Peptide text beside a SMILES is read from it. * marks the point of attachment. βGlc = OC[C@H]1O[C@@H](*)[C@H](O)[C@@H](O)[C@@H]1O
endpoint_name: solubility thermodynamic
Write down the value, and be sure its unit follows.

Q. Could you tell me which solubility thermodynamic is on file for CC[C@H](C)[C@H](NC(=O)[C@H](Cc1ccc(O)cc1)NC(=O)[C@@H](NC(=O)[C@H](CCCNC(=N)N)NC(=O)[C@@H](N)CC(=O)O)C(C)C)C(=O)N[C@@H](Cc1c[nH]cn1)C(=O)N[C@@H](CO[C@@H]1O[C@H](CO)[C@@H](O)[C@H](O)[C@H]1O)C(N)=O [PNA5] (H-DRVYIHS(βGlc)-NH2) ?
A. 269 mg/mL
